# Test system: S. aureus SH1000 biofilms
# test description: Biofilm MIC and minimum biofilm eradication concentration, Calgary Biofilm Device
# Format: cell-based, Staphylococcus aureus
# experimental parameters: Staphylococcus aureus, SH1000BIOFILMS, 24 h, biofilm MIC, S. aureus SH1000, Calgary Biofilm Device, 24 hours (Table 6); read-out: bMIC
Hi there, I'd appreciate the recorded MIC for every entry that follows.
State the answer as a number, implicitly in µg/mL.

Challenge: Suppose we examine the molecule C[C@@H]1O[C@@H]1P(=O)(O)O [Fosfomycin] ; what MIC value has been reported?
Response given: 8

Challenge: // same read-out, input: O=C(O)c1cn(C2CC2)c2cc(N3CCNCC3)c(F)cc2c1=O [Ciprofloxacin]
Response given: 4

Challenge: // same read-out, input: [H]/N=C(\N/C(=N/[H])NCCCCCCNC(=N)NC(=N)Nc1ccc(Cl)cc1)Nc1ccc(Cl)cc1 [Chlorhexidine]
Response given: 1

Challenge: // same read-out, input: CC(=O)O[C@H]1C[C@@]2(C)[C@@H](C[C@@H](O)[C@H]3[C@@]4(C)CC[C@@H](O)[C@@H](C)[C@@H]4CC[C@@]32C)/C1=C(\CCC=C(C)C)C(=O)O [Fusidic acid]
Response given: 0.5

Challenge: // same read-out, input: CN(C)[C@@H]1C(O)=C(C(N)=O)C(=O)[C@@]2(O)C(O)=C3C(=O)c4c(O)cccc4[C@@](C)(O)[C@H]3C[C@@H]12 [Tetracycline]
Response given: 0.5

Challenge: // same read-out, input: CO/N=C(\C(=O)N[C@@H]1C(=O)N2C(C(=O)O)=C(COC(C)=O)CS[C@H]12)c1csc(N)n1 [Cefotaxime]
Response given: 4

Challenge: // same read-out, input: CCCCCCCCCC(=O)N[C@@H](Cc1c[nH]c2ccccc12)C(=O)N[C@H](CC(N)=O)C(=O)N[C@@H](CC(=O)O)C(=O)N[C@@H]1C(=O)NCC(=O)N[C@@H](CCCN)C(=O)N[C@@H](CC(=O)O)C(=O)N[C@H](C)C(=O)N[C@@H](CC(=O)O)C(=O)NCC(=O)N[C@H](CO)C(=O)N[C@@H]([C@H](C)CC(=O)O)C(=O)N[C@@H](CC(=O)c2ccccc2N)C(=O)O[C@@H]1C [Daptomycin]
Response given: 2

Challenge: // same read-out, input: C[N+](C)(C)CCCOc1ccc(-c2c3nc(cc4ccc([nH]4)c(-c4ccc(OCCC[N+](C)(C)C)cc4)c4nc(cc5ccc2[nH]5)C=C4)C=C3)cc1.[Cl-].[Cl-] [Compound 10]
Response given: 1

Challenge: // same read-out, input: CO[C@H]1/C=C/O[C@@]2(C)Oc3c(C)c(O)c4c(O)c(c(/C=N/N5CCN(C)CC5)c(O)c4c3C2=O)NC(=O)/C(C)=C\C=C\[C@H](C)[C@H](O)[C@@H](C)[C@@H](O)[C@@H](C)[C@H](OC(C)=O)[C@@H]1C [Rifampin]
Response given: 0.02

Challenge: // same read-out, input: C[N+](C)(C)CCCOc1cccc(-c2c3nc(cc4ccc([nH]4)c(-c4cccc(OCCC[N+](C)(C)C)c4)c4nc(cc5ccc2[nH]5)C=C4)C=C3)c1.[Cl-].[Cl-] [Compound 12]
Response given: 1

Challenge: // same read-out, input: Cc1onc(-c2c(F)cccc2Cl)c1C(=O)N[C@@H]1C(=O)N2[C@@H]1SC(C)(C)[C@@H]2C(=O)O [Flucloxacillin]
Response given: 4

Challenge: // same read-out, input: C/C(=C\C(=O)OCCCCCCCCC(=O)O)C[C@@H]1OC[C@H](C[C@@H]2O[C@H]2[C@@H](C)[C@H](C)O)[C@@H](O)[C@H]1O [Mupirocin]
Response given: 0.25

Challenge: // same read-out, input: C[C@@H](O)[C@H]1C(=O)N2C(C(=O)O)=C(S[C@@H]3CN[C@H](C(=O)N(C)C)C3)[C@H](C)[C@H]12 [Meropenem]
Response given: 0.5
